TEST: Inhibition of recombinant perforin mediated lysis of human Jurkat cells pre-incubated for 30 mins with perforin followed by incubation with Jurkat cells at 37 degC for 4 hrs in presence of 0.1% BSA by [51Cr] release assay
QUANTITY: IC50 (µM)

In the examples that follow, each entry is paired with its recorded IC50.
Exercise: Give the measured IC50 of `CC(C)NC(=O)COc1ccc(-c2c(C#N)c(N)n3c(nc4ccccc43)c2C#N)cc1` .
Solution: 13.2

Exercise: Also `Cc1ccc2c(nc3c(C#N)c(-c4ccc(OCC(N)=O)cc4)c(C#N)c(N)n32)c1C` , if possible.
Solution: 5.21

Exercise: Also `Cc1cccc2c1nc1c(C#N)c(-c3ccc(OCC(N)=O)cc3)c(C#N)c(N)n12` , if possible.
Solution: 6.87

A. CC(O)CNC(=O)c1ccc(-c2c(C#N)c(N)n3c(nc4ccccc43)c2C#N)cc1 (stereo not given)
B. N#Cc1c(-c2ccc(C(=O)NCCc3ccncc3)cc2)c(C#N)c2nc3ccccc3n2c1N
Exercise: Which record shows the lower IC50: the first, A , or the second, B ? Could you answer with the label of the item you picked?
Solution: A
(A: 5.55 µM, B: 10.5 µM)

a. N#CC(=Cc1ccc(OCC(N)=O)cc1)c1nc2cccc(Cl)c2[nH]1
b. N#Cc1c(-c2ccc(C(=O)NCC(O)CO)cc2)c(C#N)c2nc3ccccc3n2c1N (stereo not given)
Exercise: Out of a and b , name the one with the higher IC50. Could you answer with the label of the item you picked?
Solution: a

a. CNC(=O)c1ccc(-c2c(C#N)c(N)n3c(nc4ccccc43)c2C#N)cc1
b. N#Cc1c(-c2ccc(OCCO)cc2)c(C#N)c2nc3ccccc3n2c1N
Exercise: Out of a and b , name the one with the higher IC50. Could you answer with the label of the item you picked?
Solution: b

a. N#Cc1c(-c2ccc(C(=O)NCCO)cc2)c(C#N)c2nc3ccccc3n2c1N
b. N#Cc1c(-c2ccc(OCC(=O)NCCc3ccncc3)cc2)c(C#N)c2nc3ccccc3n2c1N
Exercise: Out of a and b , name the one with the higher IC50. Could you answer with the label of the item you picked?
Solution: b
(b: 10 µM, a: 3.08 µM)

P. N#Cc1c(-c2ccc(C(N)=O)cc2)c(C#N)c2nc3ccccc3n2c1N
Q. N#Cc1c(-c2ccc(OCC(=O)NCCO)cc2)c(C#N)c2nc3ccccc3n2c1N
Exercise: Which record shows the lower IC50: the first, P , or the second, Q ? Could you answer with the label of the item you picked?
Solution: P

* * *

TEST: Inhibition of recombinant perforin mediated lysis of human Jurkat cells pre-incubated for 30 mins with perforin followed by incubation with Jurkat cells at 37 degC for 4 hrs in presence of 0.1% BSA by [51Cr] release assay
pIC50: −log10 of the molar value.
QUANTITY: pIC50

Exercise: Give the measured pIC50 of `N#Cc1c(-c2ccc(OCC(N)=O)cc2)c(C#N)c2nc3ccccc3n2c1N` .
Solution: 5.28

Exercise: Also `N#Cc1c(-c2ccc(OCC(N)=O)cc2)c(C#N)c2nc3c(Cl)cccc3n2c1N` , if possible.
Solution: 5.25

I. CNC(=O)COc1ccc(-c2c(C#N)c(N)n3c(nc4ccccc43)c2C#N)cc1
II. COc1cccc2c1nc1c(C#N)c(-c3ccc(OCC(N)=O)cc3)c(C#N)c(N)n12
Exercise: Which record shows the lower pIC50: the first, I , or the second, II ? Could you answer with the label of the item you picked?
Solution: II
